Test description: Determination of inhibitor concentration in mouse plasma after intraperitoneal and oral dosing
Format: in vivo
Condition label: female, PO, 40 mg/kg, vehicle 0.5% CMC
Reported metric: AUC(0-t) (ng·h/mL)
Kindly provide the numeric value in ng·h/mL only, without the unit symbol.

Assign AUC(0-t) to the following record: CCn1nc(C)cc1C(=O)Nc1cccc(C(=O)c2ccc3c(/C=C/c4ccccn4)n[nH]c3c2)c1.Cl [Example 59(a)]
57200

---

Examples of compounds with documented % remain (HLM, 2 h) follow.
Test description: Human liver microsome (HLM) assay
Type: in vitro ADME
Condition label: human liver microsomes, 5 μM test compound
Procedure: Human Liver Microsome (HLM) Assay Compound metabolism in human liver microsomes was measured by LC-MS analytical assay procedures as follows. […] (3 tubes per test compound-triplicate). […] The samples were then transferred to separate polypropylene microcentrifuge tubes and centrifuged at 14000 g for 10 min. (Fisher Micro […] M0017580). […]
// return numeric value only (unit: %, not printed)

Output measured % remain (HLM, 2 h) for this item: Cn1ccnc1/C=N/NC(=O)c1ccccc1Sc1ccc2c(/C=C/c3ccccn3)n[nH]c2c1 [Example 36(a)]
58

Continuing:
Look up % remain (HLM, 2 h) of CCONC(=O)c1ccccc1Sc1ccc2c(/C=C/c3ccccn3)n[nH]c2c1 [Example 35(dd)] and report it.
26

Output measured % remain (HLM, 2 h) for this item: C=CCn1nc(C)cc1C(=O)Nc1cccc(C(=O)c2ccc3c(/C=C/c4ccccn4)n[nH]c3c2)c1 [Example 41(t)]
87

Complete the entry with % remain (HLM, 2 h) for CONC(=O)c1ccccc1Sc1ccc2c(/C=C/c3ccccn3)n[nH]c2c1 [Example 35(r)]
51

Supply recorded % remain (HLM, 2 h) for C#CCNC(=O)c1ccccc1Sc1ccc2c(/C=C/c3ccccn3)n[nH]c2c1 [Example 35(cc)] here.
31

# return recorded % remain (HLM, 2 h) for entry O=C(NOCC1CC1)c1ccccc1Sc1ccc2c(/C=C/c3ccccn3)n[nH]c2c1 [Example 35(s)]
16

Using known records, supply % remain (HLM, 2 h) for O=C(Nc1cccc(Oc2ccc3c(/C=C/c4ccccc4)n[nH]c3c2)c1)c1ccccc1 [Example 4(a)]
35

Return value of % remain (HLM, 2 h) for input COc1cccc(C(=O)Nc2cccc(C(=O)c3ccc4c(/C=C/c5ccccn5)n[nH]c4c3)c2)c1 [Example 41(bb)] , no commentary.
110

Report % remain (HLM, 2 h) for O=C(NC1CCC1)c1ccccc1Sc1ccc2c(/C=C/c3ccccn3)n[nH]c2c1 [Example 35(c)]
17
